target: 4'-phosphopantetheinyl transferase ffp (Bacillus subtilis); experiment: qHTS Assay for Inhibitors of Bacillus subtilis Sfp phosphopantetheinyl transferase (PPTase); conditions: Biochemical Sfp PPTase activity;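 further: the enzyme is Sfp with the accession as filed and its product quenches rhodamine fluorescence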;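 on largest response in the series, negative = inhibition: 0% = enzyme reaction without inhibitor and -100% = no enzyme wells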
In all, about 310,000 compounds went through this assay and about 11,000 (3.5%) were called active. Roughly 4% stayed inconclusive and do not appear here. Shown is part of a subset that was picked to be rich in actives.
readoutLabel: largest response in the series, negative = inhibition (%)
One number for each entry, in %.

Worked set:
compound	numericValue
Cc1oc2c(F)c(F)c(F)c(F)c2c1S(=O)(=O)Nc1cccc(C(F)(F)F)c1	11.3
Cc1ccc(C(=O)NCCN2CCOCC2)cc1C	11.9
O=C(NCc1ccc(Cl)cc1)C1CCN(S(=O)(=O)c2cccs2)CC1	2.39
CSc1nc2ccc(S(=O)(=O)N3CCc4ccccc43)cc2s1	7.95
COC(=O)c1cc(OCC(=O)NC2CCCc3ccccc32)cc(C(=O)OC)c1 (stereo unspecified)	-18.9
C=CCn1c(CCc2ccc(OC(C)C)cc2)n[nH]c1=S	14.2
COc1ccc(OC)c(NC(=O)c2ccc3c(c2)CCN3S(C)(=O)=O)c1	9.13
Cc1ccc(NS(=O)(=O)c2ccc3c(c2)oc(=O)n3C)c(C)c1	5.37

Record largest response in the series, negative = inhibition per entry; entries follow.
1. Cc1ccccc1N1CCN(CC(=O)NCc2ccc(Cl)cc2)CC1
2. CCCC(=O)n1nc(-c2ccccc2)nc1N
3. CCOc1ccc(-c2nnn(CC(=O)N3CCN(c4ccc(OC)cc4)CC3)n2)cc1OCC

[9.8, -3.09, 20.4]

====

target: 4'-phosphopantetheinyl transferase ffp (Bacillus subtilis) (UniProt Q9F4F7); assay: qHTS Assay for Inhibitors of Bacillus subtilis Sfp phosphopantetheinyl transferase (PPTase); details: Biochemical Sfp PPTase activity;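 further: the enzyme is Sfp with the accession as filed and its product quenches rhodamine fluorescence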;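 on largest response in the series, negative = inhibition: 0% = enzyme reaction without inhibitor and -100% = no enzyme wells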
The whole screen tested about 310,000 compounds, of which about 11,000 (3.5%) were called active. Roughly 4% stayed inconclusive and do not appear here. The sample as a whole holds a higher share of actives than the screen did.
Please respond with reported largest response in the series, negative = inhibition for every item in the list.
One number for each entry, in %.

Worked set:
compound	numericValue
CCCCC(=O)Nc1nnc(S(=O)(=O)N(C)Cc2ccco2)s1	-1.11
O=C(Nc1cccc([N+](=O)[O-])c1)Nn1cnnc1	16.6
C[C@]12CC[C@@H]3c4ccc(O)cc4C[C@@H](CCCCCCCCCS(=O)CCCC(F)(F)C(F)(F)F)C3[C@@H]1CC[C@@H]2O (stereo not given in full)	-0.311

Record largest response in the series, negative = inhibition per entry; entries follow.
1. CC1=C(C(=O)NC2CC(C)(C)Cc3c2cnn3-c2ccc(C)cc2)OCCO1 (stereo not given)
2. C/C(=N/NC(=O)CSc1ccccn1)c1ccc([N+](=O)[O-])cc1
3. CCC1=Nc2cc(C(=O)NCCN3CCCC3)ccc2Sc2ccc(C)cc21

15.5
0.345
-8.33

Record largest response in the series, negative = inhibition per entry; entries follow.
1. O=C(Cn1nc([N+](=O)[O-])nc1Br)NC1CCCCC1
2. O=C(/C=C/c1ccc2c(c1)OCCO2)c1ccc(O)cc1

1: 16.4; 2: -4.02

Record largest response in the series, negative = inhibition per entry; entries follow.
1. O=C1CCC([N+](=O)[O-])C(c2ccccc2Br)N1 (stereo not given)
2. O=C(CCn1nnc2ccccc21)OCC(=O)c1ccc([N+](=O)[O-])cc1

15.7
30.5

====

target: 4'-phosphopantetheinyl transferase ffp (Bacillus subtilis) (UniProt Q9F4F7); experiment: qHTS Assay for Inhibitors of Bacillus subtilis Sfp phosphopantetheinyl transferase (PPTase); conditions: Biochemical Sfp PPTase activity; further: potency means the concentration at half of the fitted maximal effect;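 further: the enzyme is Sfp with the accession as filed and its product quenches rhodamine fluorescence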
The campaign covered roughly 310,000 compounds. About 11,000 (3.5%) were called active. About 4% were inconclusive and are not listed. The list comes from a sample in which actives are over-represented; it also holds close analogues and randomly drawn compounds.
readoutLabel: Potency

molecule	result
O=[N+]([O-])c1ccccc1/C=N/n1c(COc2ccccc2)n[nH]c1=S	56.2 µM (active)

Record Potency per entry; entries follow.
1. CCCCCCCCCCOC(=O)Cn1c(COc2ccc(C)cc2)[n+](C)c2ccccc21
2. CNC(=O)c1c(NC(NC(=O)c2ccco2)C(=O)c2ccc(Cl)cc2)sc2c1CCCC2 (centres undefined)
3. CC/C(C)=N/Nc1nc2sc3c(c2c(=O)[nH]1)CC(C)(C)OC3

31.6 µM (active)
25.1 µM (active)
39.8 µM (active)

Record Potency per entry; entries follow.
1. CCCCCCCCCCOC(=O)Cn1c(COc2cccc(OC)c2)[n+](C)c2ccccc21
2. CCOC(=O)c1c(C)nn(-c2ncccc2NC(=O)CCC(=O)O)c1C
3. Cc1ccc(-c2nn(-c3ccccc3)cc2CN(Cc2ccccc2)C(=O)CCC(=O)O)o1
4. S=C(c1ccc(-c2ccccc2)o1)N1CCCCC1

44.7 µM (active)
89.1 µM (active)
8.91 µM (active)
8.91 µM (active)

Record Potency per entry; entries follow.
1. S=C(NCc1ccc2c(c1)OCO2)NCc1ccco1
2. COc1c2c(cc3occ(-c4ccc5c(c4)OCO5)c(=O)c13)OC(C)(C)C=C2

1. 39.8 µM (active)
2. 39.8 µM (active)

Record Potency per entry; entries follow.
1. COc1ccccc1N1CCN(/N=C\C(Br)=C\c2ccccc2)CC1
2. NC(=O)c1c(NC(=O)CSc2nnc(-c3ccco3)n2N)sc2c1CCCC2
3. O=C1Nc2ccccc2C12Nc1ccccc1S2 (centres undefined)
4. NNc1nnc(NN)c2ccccc12
5. S=C(NCc1ccco1)Nc1ccc2c(c1)OCCO2
6. CN(C)S(=O)(=O)c1cccc(-c2nn(-c3ccccc3)cc2/C=C2\SC(=S)N(CC(=O)O)C2=O)c1
7. NC(N)=N/N=C/c1ccc(OCc2ccc(Cl)cc2Cl)cc1

1: 31.6 µM (active); 2: 5.62 µM (active); 3: 20 µM (active); 4: 89.1 µM (active); 5: 28.2 µM (active); 6: 56.2 µM (active); 7: 31.6 µM (active)

Record Potency per entry; entries follow.
1. C=CCn1c(CSc2nc3ccccc3s2)nnc1SCC(=O)NCc1ccco1
2. CCCCNC(=O)c1ccccc1NC(=O)c1ccccc1N(C)S(C)(=O)=O
3. Cc1nnnn1/C(=C\c1ccccc1)C(=O)OCC(=O)N1CC2(C)CC1CC(C)(C)C2 (centres undefined)
4. CCOc1ccc(NC(=S)NC(=O)/C=C/c2ccc(OC)cc2)c([N+](=O)[O-])c1
5. O=C(CCCN1C(=O)/C(=C\c2ccco2)SC1=S)Nc1cccc2ccccc12
6. CCn1c2ccccc2c2cc(NC(=O)Nc3ccc([N+](=O)[O-])cc3C)ccc21
7. COC(=O)c1[nH]c2ccccc2c1NC(=O)CN1CCCc2ccccc21
8. Cc1nc2nc(SCC(=O)NCc3ccco3)nn2c(C)c1Cc1ccccc1

15.8 µM (active)
50.1 µM (active)
50.1 µM (active)
70.8 µM (active)
56.2 µM (active)
56.2 µM (active)
39.8 µM (active)
50.1 µM (active)

Record Potency per entry; entries follow.
1. COC(=O)/C=C\C(=O)Nc1cccc([N+](=O)[O-])c1
2. Cc1ccc(C)c(NC(=S)NNC(=S)Nc2ccc(C(C)C)cc2)c1

["3.55 µM (active)", "4.47 µM (active)"]

Record Potency per entry; entries follow.
1. Cn1sc(=O)c2cc(S(=O)(=O)NC3CC3)ccc21
2. O=C(NN1C(=O)C2C3C=CC(O3)C2C1=O)c1ccccc1 (centres undefined)
3. CCN(CC)S(=O)(=O)c1cc([N+](=O)[O-])ccc1NNC(=O)Nc1ccccc1
4. CSc1ccccc1NC(=O)c1cc(C2CC2)on1
5. Cc1nnc(N/N=C/c2cccs2)[nH]c1=O
6. CCOC(=O)C1(Cc2cccc(OC)c2)CCN(C(C)CC(C)(C)O)CC1 (centres undefined)
7. Cc1ccc(-c2nn(-c3ccccc3)cc2/C=C2\SC(=S)N(CCCCCC(=O)O)C2=O)o1

11.2 µM (active)
44.7 µM (active)
56.2 µM (active)
17.8 µM (active)
89.1 µM (active)
35.5 µM (active)
39.8 µM (active)

Record Potency per entry; entries follow.
1. S=c1nccc(-c2cc(Cl)sc2Cl)[nH]1
2. O=c1c(O)c(Br)ccc2c(Br)c(O)c(O)c(O)c12
3. COc1ccc(-c2nn(-c3ccccc3)cc2/C=C2/SC(=S)N(CCCC(=O)O)C2=O)c(C)c1
4. O=C(/C=C/c1ccco1)Nc1cccc(-c2nc3ccccc3[nH]2)c1
5. COc1ccc(C(=O)CSc2n[nH]c(N)n2)cc1

1: 79.4 µM (active); 2: 44.7 µM (active); 3: 56.2 µM (active); 4: 25.1 µM (active); 5: 56.2 µM (active)

====

molecular target: 4'-phosphopantetheinyl transferase ffp (Bacillus subtilis) (UniProt Q9F4F7); experiment: qHTS Assay for Inhibitors of Bacillus subtilis Sfp phosphopantetheinyl transferase (PPTase); conditions: Biochemical Sfp PPTase activity;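 further: the enzyme is Sfp with the accession as filed and its product quenches rhodamine fluorescence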;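 on largest response in the series, negative = inhibition: 0% = enzyme reaction without inhibitor and -100% = no enzyme wells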
Screen size: about 310,000 compounds; about 11,000 (3.5%) were called active. Inconclusive results (about 4%) are left out. Only a selection was taken, and actives are over-represented in it overall.
Please respond with reported largest response in the series, negative = inhibition for every item in the list.
Answers are plain numbers, in %.

Record largest response in the series, negative = inhibition per entry; entries follow.
1. CN(CC1CCCO1)S(=O)(=O)c1ccc(C(=O)Nc2ccc([N+](=O)[O-])cc2)cc1 (configuration not stated)
2. O=C(c1cc(COc2cccc(C(F)(F)F)c2)on1)N1CCSCC1
3. Cc1c(Cl)c([N+](=O)[O-])nn1CC(=O)NCCCN1CCOCC1
4. N[C@@H](Cc1ccccc1)C(=O)N1CCC(C(=O)NCC(=O)Nc2ccc(F)cc2)CC1
5. Cn1ncc2c(N3CCCCC3)nc(NCCCO)nc21
6. CC(CCO)Nc1nc2c([nH]1)c(=O)n(C)c(=O)n2C (configuration not stated)
7. COc1ccc(CNc2nc3c(c(=O)[nH]c(=O)n3C)n2Cc2ccccc2)cc1

-10.7
-6.37
1.31
-3.37
14.5
11.2
11.4

Record largest response in the series, negative = inhibition per entry; entries follow.
1. Cc1nc2cnc(N3CCNCC3)nc2n(CCc2ccccc2)c1=O
2. O=C(c1ccncc1)N1CCC2(CCCN(C(c3ccccc3)c3ccccc3)C2)CC1
3. O=C(c1ccccc1F)N1CCN(S(=O)(=O)c2ccc(Br)cc2)CC1
4. O=C1COc2ccc(S(=O)(=O)Nc3ccc(OC(F)(F)F)cc3)cc2N1
5. Cc1cccc(N2C(=O)c3ccc(C(=O)Nc4cccc(C(=O)O)c4)cc3C2=O)c1
6. C=C1CCN(C(CC(C)C)C(=O)N2CCOCC2)S(=O)(=O)c2ccccc21 (configuration not stated)

[-8.2, -0.961, 9.87, 25.6, 8.86, -9.91]

Record largest response in the series, negative = inhibition per entry; entries follow.
1. Cn1cc(-c2nc3cnc(N4CCNCC4)nc3n(CCC#N)c2=O)c2ccccc21
2. O=C(c1ccc(Cl)c(S(=O)(=O)N2CCCCC2)c1)N1CCCCCC1
3. COc1cccc(C(=O)NNS(=O)(=O)c2ccc(F)cc2)c1
4. Nc1ncn(C2OC(CO)C(O)C2O)c(=O)n1 (configuration not stated)
5. CCc1ccc(N(C(=O)c2csnn2)C(C(=O)NC2CCCCC2)c2cccnc2)cc1 (configuration not stated)
6. CCCn1nnnc1NCc1ccc(OC)cc1

1. -19.5
2. 16.4
3. -4.08
4. 21.6
5. -9.84
6. 10.3

Record largest response in the series, negative = inhibition per entry; entries follow.
1. O=C(NCC(=O)N1CCC2(CC1)NCCc1[nH]cnc12)c1ccc(Br)cc1
2. Cc1cccc(N2C(=O)CC(SC(N)=Nc3ccccc3)C2=O)c1 (configuration not stated)

[9.84, 10.8]

Supply largest response in the series, negative = inhibition value. Item: C#CC(C)(C)NC(=O)c1cnc(-c2ccccc2)nc1-c1ccccc1 8.13
